SUBJECT OF TEST: ATAD2B (Homo sapiens)
Construct: ≥2000-fold selectivity over all 20 non-BET bromodomains tested
Sequence (Q9ULI0 951-1066 limits assumed): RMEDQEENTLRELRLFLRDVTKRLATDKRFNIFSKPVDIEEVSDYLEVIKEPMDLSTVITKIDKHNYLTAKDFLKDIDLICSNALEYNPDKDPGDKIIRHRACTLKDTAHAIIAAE
ASSAY METHOD TEXT: BROMOscan ATAD2B
pKd: −log10 of the molar value.
READOUT NAME: pKd

Cc1cc(-c2nc3ccccc3n2C[C@@H]2CCCN(C(=O)C3CCN(C(C)C)CC3)C2)cn(C)c1=O | < 4.50

* * *

SUBJECT OF TEST: SMARCA4 (Homo sapiens)
Construct: ≥2000-fold selectivity over all 20 non-BET bromodomains tested
Sequence (P51532 1453-1564 limits assumed): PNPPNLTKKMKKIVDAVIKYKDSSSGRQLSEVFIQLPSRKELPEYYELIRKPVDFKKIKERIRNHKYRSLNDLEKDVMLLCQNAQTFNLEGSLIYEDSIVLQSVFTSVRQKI
ASSAY METHOD TEXT: BROMOscan SMARCA4
READOUT NAME: Kd

Cc1cc(-c2nc3ccccc3n2C[C@@H]2CCCN(C(=O)C3CCN(C(C)C)CC3)C2)cn(C)c1=O | > 31.6 µM

* * *

Tested on: BRD4 BD1
Format: binding, human
DETAILS: TR-FRET
Entries and their measured BRD4 BD1 FRET pIC50 follow.
READOUT NAME: BRD4 BD1 FRET pIC50

Cc1cc(-c2nc3ccccc3n2C[C@@H]2CCCN(C(=O)C3CCN(C(C)C)CC3)C2)cn(C)c1=O [Compound 31] | 7.8
Cc1cc(-c2nc3ccccc3n2C[C@@H]2CCCN(C(=O)C3CCCN(C)C3)C2)cn(C)c1=O (stereo partly shown) [Compound 29] | 6.8
Cc1cc(-c2nc3ccccc3n2C[C@@H]2CCCN(C(=O)C3CCOCC3)C2)cn(C)c1=O [Compound 32] | 6.7
Cc1cc(-c2nc3ccccc3n2C[C@@H]2CCCN(C(=O)C3CCC(N)CC3)C2)cn(C)c1=O (stereo in doubt) [Compound 28] | 7.9

* * *

SUBJECT OF TEST: BRD1 (Homo sapiens)
Construct: ≥2000-fold selectivity over all 20 non-BET bromodomains tested
Sequence (O95696 562-666 limits assumed): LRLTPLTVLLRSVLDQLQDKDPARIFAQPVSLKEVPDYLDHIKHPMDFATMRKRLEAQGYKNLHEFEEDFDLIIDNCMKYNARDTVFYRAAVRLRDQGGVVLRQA
ASSAY METHOD TEXT: BROMOscan BRD1
READOUT NAME: Kd

Cc1cc(-c2nc3ccccc3n2C[C@@H]2CCCN(C(=O)C3CCN(C(C)C)CC3)C2)cn(C)c1=O | > 31.6 µM

* * *

ASSAY METHOD TEXT: Chromatographic LogD at pH 7.4
DETAILS: pH 7.4
Returns one of label 1 or label 0; label 1 when chromatographic logD is >= 2.

Cc1cc(-c2nc3ccccc3n2C[C@@H]2CCCN(C(=O)C3CCN(C)CC3)C2)cn(C)c1=O [Compound 30] | label 0
Cc1cc(-c2nc3ccccc3n2C[C@@H]2CCCN(C(=O)C3CCN(CC(F)(F)F)CC3)C2)cn(C)c1=O [Compound 36] | label 1
Cc1cc(-c2nc3ccccc3n2C[C@@H]2CCCN(C(=O)C3CCC(N)CC3)C2)cn(C)c1=O (stereo in doubt) [Compound 28] | label 0
CC(=O)N1CCC[C@H](Cn2c(-c3cc(C)c(=O)n(C)c3)nc3ccccc32)C1 [(R)-12] | label 1
Cc1cc(-c2nc3ccccc3n2C[C@@H]2CCCNC2)cn(C)c1=O [Compound 19] | label 0

* * *

ASSAY METHOD TEXT: CLND kinetic aqueous solubility
READOUT NAME: solubility

CC(=O)N1CCC[C@@H](Cn2c(-c3cc(C)c(=O)n(C)c3)nc3cc(Br)ccc32)C1 [Compound 14] | ≥ 250 µg/mL

* * *

ASSAY METHOD TEXT: Artificial membrane permeability assay
DETAILS: PAMPA
READOUT NAME: Papp

Cc1cc(-c2nc3ccccc3n2C[C@@H]2CCCN(C(=O)C3CCN(C(C)C)CC3)C2)cn(C)c1=O | < 0.3 ×10⁻⁶ cm/s

* * *

ASSAY METHOD TEXT: CLND kinetic aqueous solubility
DETAILS: aqueous
READOUT NAME: solubility

CC(=O)N1CCC[C@H](Cn2c(-c3cc(C)c(=O)n(C)c3)nc3ccccc32)C1 [(R)-12] | ≥ 169 µg/mL
Cc1cc(-c2nc3ccccc3n2CC2CCOCC2)cn(C)c1=O | ≥ 142 µg/mL
CC(=O)N1CCC[C@@H](Cn2c(-c3cc(C)c(=O)n(C)c3)nc3ccccc32)C1 [(S)-12] | ≥ 247 µg/mL

* * *

SUBJECT OF TEST: BRPF3 (Homo sapiens)
Construct: ≥2000-fold selectivity over all 20 non-BET bromodomains tested
Sequence (Q9ULD4 589-693 limits assumed): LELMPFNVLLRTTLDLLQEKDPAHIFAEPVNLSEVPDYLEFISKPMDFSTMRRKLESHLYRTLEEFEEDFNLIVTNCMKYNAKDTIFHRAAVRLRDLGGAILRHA
ASSAY METHOD TEXT: BROMOscan BRPF3
pKd: −log10 of the molar value.
READOUT NAME: pKd

Cc1cc(-c2nc3ccccc3n2C[C@@H]2CCCN(C(=O)C3CCN(C(C)C)CC3)C2)cn(C)c1=O | < 4.50

* * *

SUBJECT OF TEST: BRD9 (Homo sapiens, UniProt Q9H8M2)
Construct: ≥2000-fold selectivity over all 20 non-BET bromodomains tested; purchased DiscoverX
Sequence (Q9H8M2 136-240 limits assumed): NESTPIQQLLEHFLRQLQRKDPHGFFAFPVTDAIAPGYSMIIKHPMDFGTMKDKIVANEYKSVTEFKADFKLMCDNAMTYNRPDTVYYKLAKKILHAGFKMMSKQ
ASSAY METHOD TEXT: BROMOscan BRD9
Assay type: binding
READOUT NAME: Kd (µM)

Cc1cc(-c2nc3ccccc3n2C[C@@H]2CCCN(C(=O)C3CCN(C(C)C)CC3)C2)cn(C)c1=O | 25.1

* * *

Tested on: MCP-1
ASSAY METHOD TEXT: LPS-stimulated human whole blood (hWB) MCP-1 release assay
Assay type: cell-based
DETAILS: LPS-stimulated human whole blood; read-out: hWB MCP-1 pIC50 (converted)
Reported IC50 values are given for each entry in this list.
READOUT NAME: IC50 (nM)

Cc1cc(-c2nc3ccccc3n2C[C@@H]2CCCN(C(=O)[C@H]3CC[C@H](N)C3)C2)cn(C)c1=O | 1000
Cc1cc(-c2nc3ccccc3n2C[C@@H]2CCCN(C(=O)C3CCN(C)CC3)C2)cn(C)c1=O | 251
Cc1cc(-c2nc3ccccc3n2C[C@@H]2CCCN(C(=O)C3CCCN(C)C3)C2)cn(C)c1=O (stereo partly shown) | 1580
Cc1cc(-c2nc3ccccc3n2C[C@@H]2CCCN(C(=O)C3CCC(N)CC3)C2)cn(C)c1=O (stereo in doubt) | 316

* * *

SUBJECT OF TEST: BRD8 BD2 (Homo sapiens, UniProt Q9H0E9)
Construct: BRD8 BD2
Sequence (Q9H0E9 1099-1207 limits assumed): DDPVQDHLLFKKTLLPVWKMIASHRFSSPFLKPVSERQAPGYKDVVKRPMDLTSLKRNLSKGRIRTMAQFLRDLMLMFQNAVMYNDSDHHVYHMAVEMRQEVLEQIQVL
ASSAY METHOD TEXT: BROMOscan BRD8 BD2
READOUT NAME: Kd

Cc1cc(-c2nc3ccccc3n2C[C@@H]2CCCN(C(=O)C3CCN(C(C)C)CC3)C2)cn(C)c1=O [Compound 31] | > 31.6 µM

* * *

SUBJECT OF TEST: GCN5 (Homo sapiens)
Construct: ≥2000-fold selectivity over all 20 non-BET bromodomains tested
Sequence (Q92830 728-832 limits assumed): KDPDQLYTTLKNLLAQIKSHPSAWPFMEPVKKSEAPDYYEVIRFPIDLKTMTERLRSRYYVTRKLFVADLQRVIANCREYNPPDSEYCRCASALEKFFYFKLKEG
ASSAY METHOD TEXT: BROMOscan GCN5
Description: The BRD4 BD1/BD2 TR-FRET assay had been used routinely for this optimization work, and in order to better understand the BET BD1 domain selectivity profile, 31 was tested in TR-FRET BRD2, BRD3, and BRDT assays. [52] BROMOscan recombinant protein binding assays were carried out at DiscoverX. (accessed April 4, 2023).
pKd: −log10 of the molar value.
READOUT NAME: pKd

Cc1cc(-c2nc3ccccc3n2C[C@@H]2CCCN(C(=O)C3CCN(C(C)C)CC3)C2)cn(C)c1=O | < 4.50

* * *

SUBJECT OF TEST: CECR2 (Homo sapiens, UniProt Q9BXF3)
Construct: ≥2000-fold selectivity over all 20 non-BET bromodomains tested
Sequence (Q9BXF3 434-538 limits assumed): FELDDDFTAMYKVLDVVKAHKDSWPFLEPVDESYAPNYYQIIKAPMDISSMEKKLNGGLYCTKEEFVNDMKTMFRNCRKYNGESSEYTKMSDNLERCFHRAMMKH
ASSAY METHOD TEXT: BROMOscan CECR2
Protocol: The BRD4 BD1/BD2 TR-FRET assay had been used routinely for this optimization work, and in order to better understand the BET BD1 domain selectivity profile, 31 was tested in TR-FRET BRD2, BRD3, and BRDT assays. [52] BROMOscan recombinant protein binding assays were carried out at DiscoverX. (accessed April 4, 2023).
pKd: −log10 of the molar value.
READOUT NAME: pKd

Cc1cc(-c2nc3ccccc3n2C[C@@H]2CCCN(C(=O)C3CCN(C(C)C)CC3)C2)cn(C)c1=O [Compound 31] | < 4.50

* * *

SUBJECT OF TEST: BRD8 BD1 (Homo sapiens)
Construct: BRD8 BD1
Sequence (Q9H0E9 706-811 limits assumed): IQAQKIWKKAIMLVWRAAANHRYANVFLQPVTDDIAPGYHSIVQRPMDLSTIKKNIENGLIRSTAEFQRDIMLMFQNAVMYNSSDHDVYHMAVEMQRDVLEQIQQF
ASSAY METHOD TEXT: BROMOscan BRD8 BD1
READOUT NAME: Kd

Cc1cc(-c2nc3ccccc3n2C[C@@H]2CCCN(C(=O)C3CCN(C(C)C)CC3)C2)cn(C)c1=O | > 31.6 µM

* * *

SUBJECT OF TEST: PCAF (Homo sapiens, UniProt Q92831)
Construct: ≥2000-fold selectivity over all 20 non-BET bromodomains tested
Sequence (Q92831 723-827 limits assumed): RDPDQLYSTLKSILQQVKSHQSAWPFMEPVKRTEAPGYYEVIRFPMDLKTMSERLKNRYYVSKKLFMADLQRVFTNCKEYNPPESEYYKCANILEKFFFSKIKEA
ASSAY METHOD TEXT: BROMOscan PCAF
READOUT NAME: Kd

Cc1cc(-c2nc3ccccc3n2C[C@@H]2CCCN(C(=O)C3CCN(C(C)C)CC3)C2)cn(C)c1=O | > 31.6 µM
